- Test system: Plasmodium falciparum
- Assay explanation: GSK_TCMDC: Inhibition of Plasmodium falciparum 3D7 in whole red blood cells, using parasite LDH activity as an index of growth. Test compounds present at 2uM
- Format: functional
Measured metric: Inhibition

{"Compound": "COc1ccc2nc(C)cc(N/N=C/c3ccccc3[N+](=O)[O-])c2c1", "Measured metric": "Inhibition", "Reported value": "100%"}
{"Compound": "Cl.Cn1nc(C(F)(F)F)cc1-c1ccc(C(=O)Nc2ccc3c(c2)CNCC3(C)C)s1", "Measured metric": "Inhibition", "Reported value": "88%"}
{"Compound": "COc1ccc(-n2c(=O)c3c(n4c(SC(C)C)nnc24)-c2ccccc2CC32CCCCC2)cc1", "Measured metric": "Inhibition", "Reported value": "99%"}

Lab note: need Inhibition for O=C(NC1CCN(Cc2ccccc2O)C1)c1ccc(Cl)c(Cl)c1.O=C(O)C(F)(F)F (stereo not given) on Plasmodium falciparum, anyone have it? 92%

Next compound: "CCCC[C@H](NC(=O)OC(C)(C)C)C(=O)Nc1ccc(Cc2ccc(NC(=O)[C@H](CCCC)NC(=O)OC(C)(C)C)cc2)cc1" 95%

Next compound: Cc1ccccc1C1CCN(C2CCC(NC(=O)/C=C/c3cc(F)cc(F)c3)CC2)CC1 (stereo not given) 99%

Next compound: "O=C(O)C(F)(F)F.O=S(=O)(NCCN1CCCC1)c1ccc(-c2ccc(CNCc3ccc(F)cc3)cc2)cc1" 94%

Next compound: "c1ccc(Oc2ccc(Nc3ccnc4cc(-c5ccc(CNCCN6CCOCC6)o5)ccc34)cc2)nc1" 100%

Next compound: "CCCCN1C(=N)NC(c2ccccc2)(c2ccccc2)C1=O" 87%

Next compound: COc1ccccc1/C=C/C(=O)N(C)C1CCN(CCCCCNC(=O)/C=C/c2ccc(Cl)c(Cl)c2)C1 (stereo not given) 94%
